Recorded pIC50 values for a group of compounds are listed next.
Molecular target: Sodium-dependent serotonin transporter (Rattus norvegicus)
Sequence (P31652 whole entry): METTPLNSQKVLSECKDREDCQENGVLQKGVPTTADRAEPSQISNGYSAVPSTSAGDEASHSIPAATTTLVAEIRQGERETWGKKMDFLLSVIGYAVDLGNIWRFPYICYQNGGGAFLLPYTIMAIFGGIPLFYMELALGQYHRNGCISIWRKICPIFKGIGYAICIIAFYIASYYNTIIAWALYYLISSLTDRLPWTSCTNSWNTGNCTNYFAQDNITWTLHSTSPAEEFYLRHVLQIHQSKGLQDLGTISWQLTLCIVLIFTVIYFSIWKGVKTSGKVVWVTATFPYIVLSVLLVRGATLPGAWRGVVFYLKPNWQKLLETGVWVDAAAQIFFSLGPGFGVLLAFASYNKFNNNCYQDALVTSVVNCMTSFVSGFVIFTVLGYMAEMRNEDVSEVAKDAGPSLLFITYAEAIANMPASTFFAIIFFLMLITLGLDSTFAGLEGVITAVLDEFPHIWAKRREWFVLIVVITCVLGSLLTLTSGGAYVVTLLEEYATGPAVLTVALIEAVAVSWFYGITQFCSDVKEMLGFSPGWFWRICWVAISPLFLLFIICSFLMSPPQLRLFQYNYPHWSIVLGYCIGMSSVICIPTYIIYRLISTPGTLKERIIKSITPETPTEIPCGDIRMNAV
Test: Effect on synaptosomal uptake inhibition of 5-hydroxytryptamine (5-HT)
Format: functional
Keep it numeric: pIC50 is minus log10 of the concentration in mol/L.

Guide cases for pIC50, answers given:
COMPOUND	STUDY SYSTEM	OBSERVATION TYPE	NUMERIC VALUE
Cl.Cl.OCCN1CCN(C2CC(c3ccc(Cl)c(Cl)c3)c3ccccc32)CC1 (trans isomer)	Sodium-dependent serotonin transporter (Rattus norvegicus)	pIC50	6.68
CN(C)C[C@H]1C2CCC(CC2)[C@H]1c1ccc(Cl)c(Cl)c1 (relative stereo)	Sodium-dependent serotonin transporter (Rattus norvegicus)	pIC50	7.89
CN1CCN(C2CC(c3ccc(Cl)c(Cl)c3)c3ccccc32)CC1.Cl.Cl (trans isomer)	Sodium-dependent serotonin transporter (Rattus norvegicus)	pIC50	6.70

Consider now this further compound.
Please fill in: pIC50 reported for OCCCN1CCN(C2CC(c3ccc(Cl)c(Cl)c3)c3ccccc32)CC1 (centres undefined) = 6.92
